Where do the numbers come from? From ChEMBL document CHEMBL3588785.

Species: Homo sapiens
Assay: Selectivity for ERK (unknown origin) over C-RAF (unknown origin) at 1 uM
Entries annotated with measured Selectivity ratio
A bare number is all that is needed in reply.

Consider the reported Selectivity ratio for these compounds:
C=CC(=O)Nc1ccccc1Nc1nc(NC2CCOCC2)ncc1Cl	4
CNC(=O)c1ccc(F)cc1Nc1cc(NC2CCOCC2)ncc1C(F)(F)F	4
C=CC(=O)Nc1cnccc1Nc1nc(NC2CCOCC2)ncc1Cl	2

## Input So what does the record say about Selectivity ratio for C=CC(=O)Nc1ccccc1Nc1cc(NC2CCOCC2)ncc1Cl ?
## Output 2

## Input So what does the record say about Selectivity ratio for C=CC(=O)Nc1ccccc1Nc1nc(NC2CCOCC2)ncc1C(F)(F)F ?
## Output 6

## Input So what does the record say about Selectivity ratio for C=CS(=O)(=O)Nc1ccc2[nH]nc(-c3ccncc3)c2c1 ?
## Output 8

## Input So what does the record say about Selectivity ratio for C=CS(=O)(=O)N1CCc2[nH]nc(-c3ccnc(C)c3)c2C1 ?
## Output 5

## Input So what does the record say about Selectivity ratio for C=CC(=O)Nc1ccccc1Nc1nc(Nc2ccnn2C)ncc1Cl ?
## Output 7

## Input So what does the record say about Selectivity ratio for C=CS(=O)(=O)N1CCc2cnc(NC3CCOCC3)nc2C1 ?
## Output 2

----------
System: A-375
Assay: Antiproliferative activity against human A375 cells harboring B-RAF V600E mutant after 72 hrs by Cellomics ArrayScanTM VTI imaging analysis
Assay type: functional, cell-based
Settings: A-375, 72 h
MEASURE NAME: pIC50
Field pIC50 (float): negative decimal logarithm of the concentration in molar.

Consider the reported pIC50 for these compounds:
C=CC(=O)Nc1ccccc1Nc1nc(NC2CCOCC2)ncc1C	6.33
COc1cc(O)c2c(c1)/C=C/C[C@H](O)[C@@H](O)C(=O)/C=C/C[C@H](C)OC2=O	5.39

## Input Write down the reported pIC50 of C=CC(=O)Nc1cnccc1Nc1nc(NC2CCOCC2)ncc1Cl , test system: A-375.
## Output 7.39

----------
Entries annotated with measured IC50
Target: Mitogen-activated protein kinase; ERK1/ERK2 (Homo sapiens, UniProt P27361+P28482)
Assay: Inhibition of ERK1/2 in human A375 cells harboring B-RAF V600E mutant assessed as decrease in phospho-RSK level after 2 hrs by Cellomics ArrayScanTM VTI imaging analysis
Assay type: cell-based
Conditions: a-375

## Input So what does the record say about IC50 for CCS(=O)(=O)N1CCc2cnc(NC3CCOCC3)nc2C1 ?
## Output > 30 µM

## Input So what does the record say about IC50 for CCS(=O)(=O)Nc1ccc2[nH]nc(-c3ccncc3)c2c1 ?
## Output > 30 µM

## Input So what does the record say about IC50 for CCC(=O)Nc1ccccc1Nc1nc(NC2CCOCC2)ncc1Cl ?
## Output > 30 µM

## Input So what does the record say about IC50 for COc1cc(O)c2c(c1)/C=C/C[C@H](O)[C@@H](O)C(=O)/C=C/C[C@H](C)OC2=O ?
## Output 5.7 µM
